testMethodNotes: Pharmacokinetics, plasma concentration after intravenous dose
Type: in vivo
runConditions: rat, rats, 20 mg/kg, four hours
Protocol: For example, when 7-(3-indolylglycylamido)-3-methyl-3-cephem-4-carboxylic acid was administered to rats at an intravenous dose of 20 mg/kg, the plasma concentration after one hour was 15.0 μg/ml, and after four hours, 6.0 μg/ml. About 60% of the above compound was recovered in the urine of rats following a 20 mg/kg subcutaneous dose. Less than 5% was recovered from the bile.

compound | concentration at 4 h, ng/mL
CC1=C(C(=O)O)N2C(=O)[C@@H](NC(=O)[C@H](N)c3c[nH]c4ccccc34)C2SC1 (stereo partly shown) [Ex. 2] | 6000

###

testMethodNotes: Pharmacokinetics, plasma concentration after intravenous dose
Type: in vivo
runConditions: rat, rats, 20 mg/kg, one hour

molecule | measureUnit | concentration at 1 h
CC1=C(C(=O)O)N2C(=O)[C@@H](NC(=O)[C@H](N)c3c[nH]c4ccccc34)C2SC1 (stereo partly shown) | ng/mL | 15000

###

Tested on: Enterobacter
testMethodNotes: Agar dilution MIC
Assay type: cell-based
runConditions: Enterobacter; strain X68; read-out: Agar Dilution MIC

compound | studySystem | boundType | MIC / µg/mL
CC1(C)S[C@@H]2[C@H](NC(=O)[C@H](N)c3ccccc3)C(=O)N2[C@H]1C(=O)O [Ampicillin, reference compound] | Enterobacter | = | 8
CC1=C(C(=O)O)N2C(=O)[C@@H](NC(=O)[C@H](N)c3ccccc3)[C@H]2SC1 [Cephalexin, reference compound] | Enterobacter | = | 0.03
N[C@@H](C(=O)N[C@@H]1C(=O)N2C(C(=O)O)=C(Cl)CSC12)c1c[nH]c2ccccc12 (stereo partly shown) | Enterobacter | > | 128
COC1=C(C(=O)O)N2C(=O)[C@@H](NC(=O)[C@H](N)c3c[nH]c4ccccc34)C2SC1 (stereo partly shown) | Enterobacter | > | 128

###

testMethodNotes: Recovery in urine and bile after subcutaneous dose
Type: in vivo
runConditions: rat, urine, sc, rats, 20 mg/kg, read-out: recovered in the urine
assayReadout: dose excreted

compound | testResult
CC1=C(C(=O)O)N2C(=O)[C@@H](NC(=O)[C@H](N)c3c[nH]c4ccccc34)C2SC1 (stereo partly shown) | ~60%

###

testMethodNotes: Recovery in urine and bile after subcutaneous dose
Type: in vivo
runConditions: rat, bile, sc, rats, 20 mg/kg, read-out: recovered from the bile

compound | dose excreted
CC1=C(C(=O)O)N2C(=O)[C@@H](NC(=O)[C@H](N)c3c[nH]c4ccccc34)C2SC1 (stereo partly shown) | < 5%
